Biological target: HIV reverse transcriptase (Human immunodeficiency virus type 1 group M subtype B, UniProt P04585)
Construct: purchased HT-Biotechnology LTD, Cambridge, UK; host or cells: E. coli
Assay: Inhibition of HIV reverse transcriptase, scintillation proximity assay (SPA)
Type: biochemical
Conditions: RT-SPA, 60 min, 37° C.; molar value in parentheses; read-out: Reverse Transcriptase Asaay IC-50 (converted)
In this section we review reported IC50 values for a set of compounds.
Put down the number, then write its unit next to it.

{"Compound": "CCCC=C1c2cc(OCC)ccc2NC(=S)C1(C)C [Compound 55]", "IC50": "31 nM"}
{"Compound": "CCCC=C1c2cc(Cl)ccc2NC(=O)C1(C)C [Compound 2]", "IC50": "63 nM"}

Looking up CCOc1ccc2c(c1)C(=CCC(C)C)C(C)(C)C(=S)N2 [Compound 59] , I found its IC50 recorded as 46 nM

----------
In this section we review reported IC50 values for a set of compounds.
Target: HIV reverse transcriptase (Human immunodeficiency virus type 1 group M subtype B, UniProt P04585)
Construct: purchased HT-Biotechnology LTD, Cambridge, UK; host or cells: E. coli
Experiment: Inhibition of HIV reverse transcriptase, scintillation proximity assay (SPA)
Assay type: biochemical
Settings: RT-SPA, 60 min, 37° C.; read-out: Reverse Transcriptase Asaay IC-50 (converted)

Looking up C=CC=C1c2cc(OC)ccc2NC(=S)C1(C)C , I found its IC50 recorded as ~38.6 nM

Looking up COc1ccc2c(c1)C(=CC(C)C)C(C)(C)C(=S)N2 , I found its IC50 recorded as 61.7 nM

Looking up CCC=C1c2ccccc2NC(=S)C1(CC)CC , I found its IC50 recorded as 23.1 nM

Looking up CC(C)CC=C1c2ccccc2NC(=S)C12CCCC2 , I found its IC50 recorded as 21 nM

Looking up CC(C)C=C1c2ccccc2NC(=S)C1(C)C , I found its IC50 recorded as 270 nM

----------
System: HIV
Test: Testing preparations against HIV in cell culture (infected human donor lymphocytes)
Format: cell-based
Settings: Human immunodeficiency virus 1, 72 h; lowest concentration without giant cells; HIV-infected lymphocytes, 3 days, 37° C.
Friendly reminder: MIC below 0.02 µg/mL is Met, at or above is Not met.

Take a look at these entries with their results.
{"Molecule": "CCCC=C1c2cc(Cl)ccc2NC(=O)C1(C)C [Compound 2]", "Discrete Label": "Not met"}
{"Molecule": "C=C1c2cc(Cl)ccc2NC(=S)C1(C)C [Compound 1]", "Discrete Label": "Not met"}
{"Molecule": "CCCC=C1c2cc(OC)ccc2NC(=O)C1(C)C [Compound 41]", "Discrete Label": "Not met"}

Now for another entry.
Task item: Decide: MIC of CCC=C1c2cc(OC)ccc2NC(=S)C1(C)C [Compound 45] strictly below 0.02 µg/mL?
Reply: Met

----------
Tested on: HIV
Test: Testing preparations against HIV in cell culture (infected human donor lymphocytes)
Format: cell-based
Conditions: Human immunodeficiency virus 1, 72 h; lowest concentration without giant cells; HIV-infected lymphocytes, 3 days, 37° C.
In this section we review reported MIC values for a set of compounds.

{"Compound": "CCOc1ccc2c(c1)C(=CC(C)C)C(C)(C)C(=S)N2 [Compound 47]", "MIC": "< 0.08 mg/L"}
{"Compound": "CC(C)CC=C1c2ccccc2NC(=S)C12CCCC2 [Compound 70]", "MIC": "0.02 mg/L"}
{"Compound": "CCC/C=C1\\c2cc(Cl)ccc2NC(=O)C1(C)C [Compound 73]", "MIC": "< 0.04 mg/L"}
{"Compound": "CCCC=C1c2cc(OCC)ccc2NC(=S)C1(C)C [Compound 55]", "MIC": "< 0.08 mg/L"}

Looking up CC1(C)C(=S)Nc2ccc(F)cc2C1=C1CCCC1 [Compound 143] , I found its MIC recorded as > 0.008 mg/L
